- System: A-427
- PROTOCOL TEXT: In vitro inhibition of A-427 (human lung cancer) cell growth.
- Format: functional, cell-based
pIC50: −log10 of the molar value.
REPORTED PROPERTY: pIC50

1. O=C1c2nccc(-c3ccccc3NC(=O)C(F)(F)F)c2C(=O)c2c([N+](=O)[O-])ccnc21: 5.35
2. O=C1c2nccc(O)c2-c2nc3ccccc3c3ccnc1c23: 6.70
3. COc1ccnc2c1C(=O)c1c(-c3ccccc3NC(=O)C(F)(F)F)ccnc1C2=O: 7.30
4. Nc1ccnc2c1-c1nc3ccccc3c3ccnc(c13)C2=O: 7.22
5. COc1ccnc2c1C(=O)c1c(-c3ccccc3[N+](=O)[O-])ccnc1C2=O: 6.15

###

A collection of molecules and their measured pIC50
- Test system: U373 MG
- PROTOCOL TEXT: In vitro inhibition of U-373 MG (human glioblastoma) cell growth.
- Type: functional, cell-based, U-373MG ATCC
pIC50: −log10 of the molar value.
REPORTED PROPERTY: pIC50

1) O=C1c2nccc(Br)c2-c2nc3ccccc3c3ccnc1c23: 6.05
2) Nc1ccnc2c1-c1nc3ccccc3c3ccnc(c13)C2=O: 7.00
3) Nc1ccnc2c1C(=O)c1c(-c3ccccc3NC(=O)C(F)(F)F)ccnc1C2=O: 6.05
4) O=C1c2nccc(-c3ccccc3NC(=O)C(F)(F)F)c2C(=O)c2c([N+](=O)[O-])ccnc21: 6.05
5) CN(C)c1ccnc2c1C(=O)c1c(-c3ccccc3NC(=O)C(F)(F)F)ccnc1C2=O: 6.52
6) CCOC(=O)c1cnc2c(c1)C(=O)c1c(-c3ccccc3NC(=O)C(F)(F)F)ccnc1C2=O: 6.40
7) O=C1c2nccc(O)c2C(=O)c2c(-c3ccccc3[N+](=O)[O-])ccnc21: 5.40
8) O=C1c2nccc(Cl)c2-c2nc3ccccc3c3ccnc1c23: 7.00
9) CN(C)c1ccnc2c1-c1nc3ccccc3c3ccnc(c13)C2=O: 7.10
10) O=C1c2ncccc2-c2nc3ccccc3c3ccnc1c23: 9.15
11) CCOC(=O)c1cnc2c(c1)-c1nc3ccccc3c3ccnc(c13)C2=O: 6.15
12) O=C1c2ncccc2C(=O)c2c(-c3ccccc3NC(=O)C(F)(F)F)ccnc21: 8.30
13) O=C1c2nccc(Cl)c2C(=O)c2c(-c3ccccc3NC(=O)C(F)(F)F)ccnc21: 7.05
14) O=C1c2nccc(Cl)c2C(=O)c2c(-c3ccccc3[N+](=O)[O-])ccnc21: 5.32
15) O=C1c2nccc(O)c2-c2nc3ccccc3c3ccnc1c23: 7.00
16) Nc1ccnc2c1C(=O)c1c(-c3ccccc3[N+](=O)[O-])ccnc1C2=O: 5.51
17) CC(=O)Nc1ccnc2c1C(=O)c1c(-c3ccccc3NC(=O)C(F)(F)F)ccnc1C2=O: 7.05
18) O=C1c2nccc([N+](=O)[O-])c2-c2nc3ccccc3c3ccnc1c23: 7.05
19) COc1ccnc2c1C(=O)c1c(-c3ccccc3[N+](=O)[O-])ccnc1C2=O: 7.52
20) O=C1c2nc(O)ccc2C(=O)c2c(-c3ccccc3NC(=O)C(F)(F)F)ccnc21: 7.40

###

The reader will find reported IC50 values listed item by item below.
- System: A-427
- PROTOCOL TEXT: In vitro inhibition of A-427 (human lung cancer) cell growth.
- Format: functional, cell-based
REPORTED PROPERTY: IC50 (nM)

1) Nc1ccnc2c1C(=O)c1c(-c3ccccc3NC(=O)C(F)(F)F)ccnc1C2=O: 500
2) O=C1c2nccc(Cl)c2C(=O)c2c(-c3ccccc3[N+](=O)[O-])ccnc21: 3500
3) CCOC(=O)c1cnc2c(c1)-c1nc3ccccc3c3ccnc(c13)C2=O: 800
4) O=C1c2nccc(Cl)c2C(=O)c2c(-c3ccccc3NC(=O)C(F)(F)F)ccnc21: 600
5) O=C1c2nccc(Br)c2-c2nc3ccccc3c3ccnc1c23: 700
6) CC(=O)Nc1ccnc2c1C(=O)c1c(-c3ccccc3NC(=O)C(F)(F)F)ccnc1C2=O: 60
7) CCOC(=O)c1cnc2c(c1)C(=O)c1c(-c3ccccc3NC(=O)C(F)(F)F)ccnc1C2=O: 600
8) CN(C)c1ccnc2c1-c1nc3ccccc3c3ccnc(c13)C2=O: 60
9) O=C1c2nc(O)ccc2C(=O)c2c(-c3ccccc3NC(=O)C(F)(F)F)ccnc21: 40
10) O=C1c2ncccc2C(=O)c2c(-c3ccccc3NC(=O)C(F)(F)F)ccnc21: 30
11) COc1ccnc2c1-c1nc3ccccc3c3ccnc(c13)C2=O: 5
12) Nc1ccnc2c1C(=O)c1c(-c3ccccc3[N+](=O)[O-])ccnc1C2=O: 5500

###

- System: SW1088 (human)
- PROTOCOL TEXT: In vitro inhibition of SW1088 (human astrocytoma) cell growth.
pIC50: −log10 of the molar value.
Mark 1 (yes) for reported pIC50 of 6 or greater; mark 0 (no) for anything smaller.

1. CN(C)c1ccnc2c1C(=O)c1c(-c3ccccc3NC(=O)C(F)(F)F)ccnc1C2=O: 1 (yes)
2. CN(C)c1ccnc2c1-c1nc3ccccc3c3ccnc(c13)C2=O: 1 (yes)
3. Nc1ccnc2c1C(=O)c1c(-c3ccccc3[N+](=O)[O-])ccnc1C2=O: 0 (no)
4. CCOC(=O)c1cnc2c(c1)-c1nc3ccccc3c3ccnc(c13)C2=O: 0 (no)
5. O=C1c2nccc(O)c2-c2nc3ccccc3c3ccnc1c23: 0 (no)
6. O=C1c2ncccc2-c2nc3ccccc3c3ccnc1c23: 1 (yes)
7. O=C1c2ncccc2C(=O)c2c(-c3ccccc3NC(=O)C(F)(F)F)ccnc21: 1 (yes)
8. O=C1c2nccc(Cl)c2C(=O)c2c(-c3ccccc3[N+](=O)[O-])ccnc21: 0 (no)
9. O=C1c2nc(O)ccc2C(=O)c2c(-c3ccccc3NC(=O)C(F)(F)F)ccnc21: 1 (yes)
10. Nc1ccnc2c1-c1nc3ccccc3c3ccnc(c13)C2=O: 1 (yes)

###

- System: U-87 MG
- PROTOCOL TEXT: In vitro inhibition of U-87 MG (human glioblastoma) cell growth.
- Format: functional, cell-based, U-87MG ATCC
pIC50: −log10 of the molar value.
Respond with met for pIC50 values of 7 and above, not met for values below.

1. O=C1c2nccc(Br)c2-c2nc3ccccc3c3ccnc1c23: not met
2. COc1ccnc2c1C(=O)c1c(-c3ccccc3[N+](=O)[O-])ccnc1C2=O: met
3. COc1ccnc2c1C(=O)c1c(-c3ccccc3NC(=O)C(F)(F)F)ccnc1C2=O: met
4. O=C1c2ncccc2C(=O)c2c(-c3ccccc3NC(=O)C(F)(F)F)ccnc21: met
5. Nc1ccnc2c1C(=O)c1c(-c3ccccc3NC(=O)C(F)(F)F)ccnc1C2=O: not met

###

- System: PC-3
- PROTOCOL TEXT: In vitro inhibition of PC-3 (human prostate cancer) cell growth.
- Assay type: functional, cell-based
pIC50: −log10 of the molar value.
Below is a list of entries, each paired with its recorded pIC50 value.
REPORTED PROPERTY: pIC50

1. CC(=O)Nc1ccnc2c1C(=O)c1c(-c3ccccc3NC(=O)C(F)(F)F)ccnc1C2=O: 5.57
2. COc1ccnc2c1C(=O)c1c(-c3ccccc3[N+](=O)[O-])ccnc1C2=O: 5.51
3. O=C1c2nccc(Cl)c2-c2nc3ccccc3c3ccnc1c23: 6.30
4. CCOC(=O)c1cnc2c(c1)C(=O)c1c(-c3ccccc3NC(=O)C(F)(F)F)ccnc1C2=O: 5.89
5. Nc1ccnc2c1C(=O)c1c(-c3ccccc3[N+](=O)[O-])ccnc1C2=O: 5.29
6. Nc1ccnc2c1C(=O)c1c(-c3ccccc3NC(=O)C(F)(F)F)ccnc1C2=O: 6.22
7. O=C1c2ncccc2C(=O)c2c(-c3ccccc3NC(=O)C(F)(F)F)ccnc21: 7.22
8. O=C1c2nccc(O)c2C(=O)c2c(-c3ccccc3[N+](=O)[O-])ccnc21: 5.14
9. O=C1c2ncccc2-c2nc3ccccc3c3ccnc1c23: 7.40
10. O=C1c2nccc(-c3ccccc3NC(=O)C(F)(F)F)c2C(=O)c2c([N+](=O)[O-])ccnc21: 6.22
11. O=C1c2nccc(Cl)c2C(=O)c2c(-c3ccccc3NC(=O)C(F)(F)F)ccnc21: 6.05
12. O=C1c2nccc(Br)c2-c2nc3ccccc3c3ccnc1c23: 5.31

###

- System: A-427
- PROTOCOL TEXT: In vitro inhibition of A-427 (human lung cancer) cell growth.
- Type: functional, cell-based
pIC50: −log10 of the molar value.
Hi, to clarify the labels: TRUE covers pIC50 from 6 upward, FALSE covers anything below 6.

1. CN(C)c1ccnc2c1C(=O)c1c(-c3ccccc3NC(=O)C(F)(F)F)ccnc1C2=O: TRUE
2. O=C1c2nccc([N+](=O)[O-])c2-c2nc3ccccc3c3ccnc1c23: FALSE
3. O=C1c2ncccc2-c2nc3ccccc3c3ccnc1c23: TRUE

###

- Test system: SW1088 (human)
- PROTOCOL TEXT: In vitro inhibition of SW1088 (human astrocytoma) cell growth.
REPORTED PROPERTY: IC50 (nM)

1. COc1ccnc2c1-c1nc3ccccc3c3ccnc(c13)C2=O: 60
2. CC(=O)Nc1ccnc2c1C(=O)c1c(-c3ccccc3NC(=O)C(F)(F)F)ccnc1C2=O: 90
3. COc1ccnc2c1C(=O)c1c(-c3ccccc3NC(=O)C(F)(F)F)ccnc1C2=O: 50
4. O=C1c2nccc(Br)c2-c2nc3ccccc3c3ccnc1c23: 3000
